Hey, just so you know, these numbers are from patent US20240376198A1.

# system_under_test: T1, human NKp46 (human, UniProt O76036 22-304)
# T1 construct: also called CD335; NCR1
# protocol_notes: flow cytometry, HEK293F cells transfected with human NKp46
Each entry below carries its reported Kd.
Number only, in pM; omit the unit.

{"binder": "NKp46-hz5D7v13-Fc* (Fc fusion, VHH-Fc fusion with an IgG1 Fc lacking a hinge (Fc*)) EVQLVESGGGEVQPGGSLRLSCAASGRTFASAAMGWFRQAPGKEREFVAAISRSDDTYYAESVKGRFTISRDNAKNTVYLQMSSLRAEDTAVYYCAAVVPTYGNTIYVHSAAYNYWGQGTLVTVKPGGGGPSVFLFPPKPKDTLMISRTPEVTCVVVDVSHEDPEVKFNWYVDGVEVHNAKTKPREEQYNSTYRVVSVLTVLHQDWLNGKEYKCKVSNKALPAPIEKTISKAKGQPREPQVYTLPPSRDELTKNQVSLTCLVKGFYPSDIAVEWESNGQPENNYKTTPPVLDSDGSFFLYSKLTVDKSRWQQGNVFSCSVMHEALHNHYTQKSLSLSPG", "Kd [pM]": 234}

Documented Kd of NKp46-hz5D7v3-Fc* (Fc fusion, VHH-Fc fusion with an IgG1 Fc lacking a hinge (Fc*); also called NKp46-bz5D7v3-Fc*) EVQLVESGGGEVQPGGSLRLSCAASGRTFASAAMGWFRQAPGKEREFVAAISRSDDTYYAESVKGRFTISRDNAKNTVYLQMSSLRAEDTAVYYCAAVVPTYGNNIYVHSAAYNYWGQGTLVTVKPGGGGPSVFLFPPKPKDTLMISRTPEVTCVVVDVSHEDPEVKFNWYVDGVEVHNAKTKPREEQYNSTYRVVSVLTVLHQDWLNGKEYKCKVSNKALPAPIEKTISKAKGQPREPQVYTLPPSRDELTKNQVSLTCLVKGFYPSDIAVEWESNGQPENNYKTTPPVLDSDGSFFLYSKLTVDKSRWQQGNVFSCSVMHEALHNHYTQKSLSLSPG : 177
